Values compiled from patent US20120207760A1.

Trimeric HA Binding RLU values, listed per item
- subjectOfTest: recombinant homotrimeric HA, A/Egypt/3300-NAMRU3/08 H5N1 (Influenza A virus A/Egypt/3300-NAMRU3/08 (H5N1))
- experimentNotes: trimeric HA microarray, transfection set 3
- conditionLabel: remark: other sources report otherwise

>  <binder>
TCN-530 (5248_H10a) (antibody, V domains shown) VH: QVQLVQSGAEVRKPGSSVKVSCKASGGPFMSYAIGWVRQAPGQGLEWMGGINPVFGRPHYAQKFQGRVTIATDDSTKTSYMELSSLTSEDTGMYYCASRYSRSSPGTFESWGQGTLVTVSS VL: EIVMTQFPATLSVSPGERVTLSCRASQSVSNNLAWYQQKPGQPPRLLIYDASTRATGVPAKFSGTGSGTEFTLSISSLQSEDFAVYYCQQYHNWPPSYSFGLGTKLEIK

>  <Trimeric HA Binding RLU>
25500 RLU

$$$$
>  <binder>
TCN-523 (5248_A17) (antibody, V domains shown) VH: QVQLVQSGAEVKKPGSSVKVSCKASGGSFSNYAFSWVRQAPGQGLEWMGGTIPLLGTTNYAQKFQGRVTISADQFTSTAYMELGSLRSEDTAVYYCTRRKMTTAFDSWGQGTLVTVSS VL: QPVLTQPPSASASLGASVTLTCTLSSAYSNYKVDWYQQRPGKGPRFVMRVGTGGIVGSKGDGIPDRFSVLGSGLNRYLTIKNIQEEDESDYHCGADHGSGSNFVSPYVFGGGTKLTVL

>  <Trimeric HA Binding RLU>
29100 RLU

$$$$
>  <binder>
TCN-504 (3251_K17) (antibody, V domains shown) VH: QVQLQESGPGLVKPSETLSLTCAVSGVSISNIDFYWGWIRQPPGKGLEWIGNIYYTGITFYNPSLSSRVAISIDTSKNQFSLTLTSVTAADTAMYYCARHYGDSEAINDAFDIWGQGTMLTVSS VL: EIVMTQSPATLSVSPGERATLSCRASQSVGNSLAWYQQRPGQAPRLLIYGASTRATGIPPRFSGSGSGTEFTLTISSLQTEDFAVYYCQQYINWRPLSFGGGTKVEIK

>  <Trimeric HA Binding RLU>
18000 RLU

$$$$
>  <binder>
TCN-531 (5091_H13) (antibody, V domains shown) VH: EVQLVESGGDLVQPGRSLKLSCTGSGFTFGDYGVTWVRQAPGKGLEWVGFIRTRPWGGTADTAASVKGRFTISRDDSKSLAYLQMNSLKTEDTAVYYCCRDAPPNVEVASMTNWYFDLWGRGTLVTVSS VL: DIQLTQSPSSLSASVGDRVTITCRASQGILNCLAWYQQKPGKVPNLLMYAASTLQSGVPSRFSGSGFGTDFTLTISSLQPEDVATYYCQTYGGVSTFGGGTKVEIR

>  <Trimeric HA Binding RLU>
363 RLU

$$$$
